Test system: Saccharomyces cerevisiae
Assay: protein stability index of tFT-peptide fusion (C-terminal peptide) (PSI (0-1 scale)); higher = more stable (slower turnover);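 also: PSI is a weighted mean of sequencing reads over stability bins, variants kept only with over 10 reads, mCherry proximal and sfGFP distal, peptide attached via GGGS linker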
Details: genetic background: wild type; temperature: 30 C
Classify as follows. Reported protein stability index greater than or equal to 0.7: Criterion met. Reported protein stability index below: Criterion not met.

Solved cases below.
> print(dat)
    biosequence              class
1  PSRVPTPLPHFT      Criterion met
2  RYSLMRAVRDRL      Criterion met
3  TPPTHPPPLPPL      Criterion met
4  AQYSTPSPMGQT  Criterion not met
5  SLRMMKTTNAWT  Criterion not met

Qu. Could you verify whether the entry "GLRFVPLPLRPV" shows protein stability index of no less than 0.7?
Ans. Criterion met

Qu. Decide: is the reported value of protein stability index for "ARFFFFCVGILI" equal to or greater than 0.7?
Ans. Criterion not met

Qu. Dear colleague, could you confirm whether "GPSVGWFPSGWS" has protein stability index at or above 0.7?
Ans. Criterion met

Qu. Reported protein stability index reaches at least 0.7 for "WCAGLATAIQLR" ?
Ans. Criterion not met

Qu. Test whether the sequence "KLTKGKIQLHIK" records protein stability index of 0.7 or higher.
Ans. Criterion not met

* * *

System: Saccharomyces cerevisiae
Assay: protein stability index of tFT-peptide fusion (C-terminal peptide) (PSI (0-1 scale)); higher = more stable (slower turnover)
Conditions: genetic background: wild type; temperature: 30 C
Outcome Measure: protein stability index
Could you keep your reply to the number by itself?

The following sequences have reported results that may help.
> print(dat)
    biosequence          outcome.measure  measured.result
1  RRDELINVVKRT  protein stability index            0.717
2  IEKVKIMNKERN  protein stability index            0.692

# next sequence below
Qu. Sample "SRVGWSRLGPGL" — what was its protein stability index?
Ans. 0.68

* * *

Tested on: Saccharomyces cerevisiae
Test: protein stability index of tFT-peptide fusion (C-terminal peptide) (PSI (0-1 scale)); higher = more stable (slower turnover)
Details: genetic background: doa10 deletion; temperature: 30 C
Some sequences, each annotated with its measured protein stability index.
Number, no unit, nothing else.

> print(dat)
    biosequence  measured.result
1  PETSRFALNEWG            0.674

Qu. I have this sequence here, "VCLCVIICSMSV" , and I need its recorded protein stability index.
Ans. 0.0265

Qu. Please give the measured protein stability index for this sequence: "PISLYFVWFFFF"
Ans. 0.15

Qu. Can you look up the measured protein stability index of "LLVVGPVRLVVH" for me?
Ans. 0.168

Qu. Give its protein stability index value. Item: "RPCLSALRFRFF"
Ans. 0.141

Qu. Consider the sequence shown here: "FRFGAKISLIVL" What is its recorded protein stability index?
Ans. 0.189

Qu. For "MALAVRVVPCGA" , what is its reported protein stability index?
Ans. 0.264

Qu. Returns the measured protein stability index for the input sequence. Input: "GPNWCSVCQGVG"
Ans. 0.446

Qu. Dear colleague, I am looking for the recorded protein stability index of the following sequence: "VCFFLFWCLSFS"
Ans. 0.348

Qu. Can you look up the measured protein stability index of "VVTFCCARVTKI" for me?
Ans. 0.585

* * *

System: Saccharomyces cerevisiae
Test: protein stability index of tFT-peptide fusion (C-terminal peptide) (PSI (0-1 scale)); higher = more stable (slower turnover)
Conditions: genetic background: cdc53-1; temperature: 37 C
Reported protein stability index values are given for each entry in this list.
Just the number, please, no unit after it.

Qu. Given "HIVYCSSEQIKC" , state its recorded protein stability index.
Ans. 0.642

Qu. May I ask what protein stability index has been recorded for "FFCYFFEFFICG" ?
Ans. 0.419

Qu. Recorded protein stability index for "KIRGYLMPLTLL" , please?
Ans. 0.6

Qu. Returns the measured protein stability index for the input sequence. Input: "FCVLLFYCFFFF"
Ans. 0.322

Qu. Param item = "HCLGWCFSRLSS" ; retrieve measured protein stability index.
Ans. 0.72

Qu. May I ask what protein stability index has been recorded for "GGLWRRLCLGVG" ?
Ans. 0.463

Qu. Reported protein stability index, sequence "SFGLICFLILCG" : ____
Ans. 0.218

Qu. Can you look up the measured protein stability index of "LLGHLFTMLVIY" for me?
Ans. 0.157

* * *

Measured protein stability index of individual entries
System: Saccharomyces cerevisiae
Test: protein stability index of tFT-peptide fusion (C-terminal peptide) (PSI (0-1 scale)); higher = more stable (slower turnover)
Conditions: genetic background: wild type; temperature: 30 C

Solved entries:
> print(dat)
    biosequence  measured.result
1  WGGSGRVWVKLG            0.696
2  ARLPVPPLLCPF             0.71

We now examine a further sequence.
Qu. Find the recorded protein stability index belonging to "PPTRLPQGVSWR" and report it.
Ans. 0.702

* * *

Test system: Saccharomyces cerevisiae
Assay: protein stability index of tFT-peptide fusion (C-terminal peptide) (PSI (0-1 scale)); higher = more stable (slower turnover)
Details: genetic background: wild type; temperature: 30 C
Outcome Measure: protein stability index
Field format: numeric only.

Worked cases, answers included:
> print(dat)
    biosequence          outcome.measure  measured.result
1  KLQKTKNPKSNT  protein stability index            0.662
2  IPLSFDRLLLID  protein stability index             0.63
3  VLMDVVGLGSSS  protein stability index            0.683
4  KKGRAEKKKRRK  protein stability index             0.65

Now look at this entry.
Qu. What measured protein stability index goes with "SWTCSPLKSFHS" ?
Ans. 0.734

* * *

# protein stability index values compiled below
System: Saccharomyces cerevisiae
Experiment: protein stability index of tFT-peptide fusion (C-terminal peptide) (PSI (0-1 scale)); higher = more stable (slower turnover)
Details: genetic background: wild type; temperature: 30 C
Output: the number by itself.

> print(dat)
    biosequence               test.system          outcome.measure  measured.result
1  LPSTHVPPEPLG  Saccharomyces cerevisiae  protein stability index            0.679

Qu. Give the reported protein stability index for "GAHATVPSMVTL" (system: Saccharomyces cerevisiae).
Ans. 0.698

Qu. Could you share what protein stability index was measured for "VYTIHECADMLY" , tested on Saccharomyces cerevisiae?
Ans. 0.712

Qu. Field: protein stability index (Saccharomyces cerevisiae). Entry: "VFLRSPSRAPSL"
Ans. 0.72

Qu. Any idea what protein stability index came out for "KTKDGKNNRRTN" on Saccharomyces cerevisiae?
Ans. 0.687

* * *

Measured protein stability index, listed per entry.
System: Saccharomyces cerevisiae
Assay: protein stability index of tFT-peptide fusion (C-terminal peptide) (PSI (0-1 scale)); higher = more stable (slower turnover)
Conditions: genetic background: cdc53-1; temperature: 37 C

Completed entries (count: 2):
> print(dat)
    biosequence          outcome.measure  measured.result
1  DDESLVGRWRKV  protein stability index            0.726
2  FSLFYYIHLSVA  protein stability index            0.211

Qu. Please look up its protein stability index: "NVVIGLHLLVYI"
Ans. 0.313

Qu. Requested read-out: protein stability index. Entry: "IVCYFFAFSFMW"
Ans. 0.399

Qu. What does the record list as protein stability index for "SVVYVIYCGGIL" ?
Ans. 0.481

* * *

Tested on: Saccharomyces cerevisiae
Test: protein stability index of tFT-peptide fusion (C-terminal peptide) (PSI (0-1 scale)); higher = more stable (slower turnover)
Conditions: genetic background: cdc53-1; temperature: 37 C
Outcome Measure: protein stability index
Reply with just the number.

Example sequences with recorded protein stability index:
> print(dat)
    biosequence          outcome.measure  measured.result
1  DWTVSYLWVTAL  protein stability index            0.592
2  VFSAIPDWLILA  protein stability index            0.509
3  GCVTFVLISFCA  protein stability index            0.306
4  VAALFPPLRFLN  protein stability index            0.711
5  LESYGLRDSTSG  protein stability index            0.651

Qu. Query (sequence): "PETSRFALNEWG" ; field requested: protein stability index
Ans. 0.748

Qu. protein stability index lookup needed for "CGLGKVLGWRWV" , thanks.
Ans. 0.727

Qu. # input sequence: "LLRLPLLALLFV" ; wanted: its protein stability index
Ans. 0.227

Qu. Please report the recorded protein stability index for "VGPLAPVCLLVL" .
Ans. 0.482
